Data origin: ChEMBL document CHEMBL1212732

Molecular target: Internal ribosome entry site (IRES)
Assay: Binding affinity to HCV 2AP54-labelled IRES subdomain 2a RNA in presence of 1 mM Mg2+ by FRET assay
Assay type: nucleic-acid assay, Hepacivirus hominis

>  <COMPOUND>
CN(C)CC(CO)Cn1c(N)nc2ccc3c(c21)CC(CO)CO3 (configuration not stated)

>  <TARGET>
Internal ribosome entry site (IRES)

>  <UNIT_INFO>
µM

>  <EC50>
90

$$$$
>  <COMPOUND>
CN(C)CC1COc2ccc3nc4n(c3c2C1)CC(CN(C)C)CN4 (configuration not stated)

>  <TARGET>
Internal ribosome entry site (IRES)

>  <UNIT_INFO>
µM

>  <EC50>
0.6

$$$$
